Biological target: T1, human TIGIT (T cell immunoreceptor with Ig and ITIM domains), expressed on cells (human, UniProt Q495A1 22-244)
T1 sequence: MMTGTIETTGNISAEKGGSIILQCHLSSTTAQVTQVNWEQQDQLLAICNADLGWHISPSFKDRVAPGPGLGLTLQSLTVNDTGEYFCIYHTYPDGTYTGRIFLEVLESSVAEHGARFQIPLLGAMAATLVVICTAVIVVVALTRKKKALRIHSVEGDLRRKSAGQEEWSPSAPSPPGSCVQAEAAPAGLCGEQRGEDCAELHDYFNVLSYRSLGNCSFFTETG
Experiment: cell-based or functional assay
So I've got a bunch of binders here, and I need their EC50 (read off the curve), NFAT luciferase reporter, TIGIT blockade values.

Below, 3 binders whose answers are already recorded.
>  <binder>
3G6 bivalent VHH antibody (Fc fusion) VHH: QVQLVESGGGLVQAGGSLSLSCAASGSIFGISVMGWYRQAPGEQRDLVATLTRAGLTTYGDSVKGRFSISRDSAKNTVYLQMNNLKPEDTAVYYCHANIMESAASTFGRYWGQGTQVTVSS

>  <reading>
~3 nM

$$$$
>  <binder>
3G7 bivalent VHH antibody (Fc fusion, Bivalent VHH-CH2-CH3, ExpiCHO, Protein A purified) VHH: QVQLVESGGGLVQAGDSLRLSCEASGRTLSTYTMGWFRRAPGKEREFVGLAWPSPSTYVVDSVKGRFTISRDNAKNTIYLQMNSLKPEDTAIYYCAADYKSLTQSWLNAALDYWGQGTQVTVSS

>  <reading>
~1 nM

$$$$
>  <binder>
2B10 bivalent VHH antibody (Fc fusion) VHH: QVKLEESGGGLVQTGDSLRLSCAASSRIFRRYAMGWFRQAPGKEREFVAAITWSGASTTYTDSVKGRFTISRDSAENTTYLQMTSLRPEDTAVYYCAADPWGSVIVGTAEYEYWGQGTLVTVSS

>  <reading>
~0.7 nM

$$$$

Look up EC50 (read off the curve), NFAT luciferase reporter, TIGIT blockade: 3F10 bivalent VHH antibody (Fc fusion) VHH: QVQLVESGGGLVQAGGSLRLSCASSEHTFSNFPMGWFRQAPGKERNVVAAIDSSGRLTYYADSVKGRFTISKDNAKSTVYLQMNSLKSEDTARYYCAARTGGVGYYSRSSFYNYWGQGTLVTVSS
~0.3 nM
